Known GI50 of a selection of compounds
Tested on: HOP-62
PROTOCOL DETAILS: NCI tumour cell line growth inhibition, 48 h
Calls of active or inactive are those of the source. No stated cut-off is given here; in the data, active = GI50 up to about 1.1 µM and inactive = higher.
ATTRIBUTE MEASURED: GI50

| COMPOUND | SUBJECT OF TEST | RESULT VALUE |
| --- | --- | --- |
| CC/C(=C\c1ccc(Cl)c(Cl)c1)[N+](=O)[O-] | HOP-62 | 2.96 µM (inactive) |
| CC1(C)CCC[C@]2(C)[C@@H]1CC[C@@]13O[C@@H]1C1=C(CO)C(=O)O[C@]14O[C@@H]4[C@@H]23 | HOP-62 | 17.8 µM (inactive) |
| CC(=O)C(C(C)=O)[C@@H]1OC(C)(C)O[C@@H]1[C@H]1COC(C)(C)O1 | HOP-62 | 45.9 µM (inactive) |
| O=C1C=CC(=O)c2c1ccc1c3ccccc3n(Cc3cccc([N+](=O)[O-])c3)c21 | HOP-62 | > 100 µM (inactive) |
| COc1cc(C2c3cc4c(cc3[C@@H](OCCN)[C@H]3COC(=O)C23)OCO4)cc(OC)c1O (stereo not given in full) | HOP-62 | 0.069 µM (active) |
| N=C(N)NCC[C@H](NC(=O)OCCCCCn1ccc(=O)[nH]c1=O)C(=O)O | HOP-62 | > 100 µM (inactive) |
| CC1(O)CC(C(F)(F)F)(C(F)(F)F)OC1=O (stereo not given) | HOP-62 | > 10 µM (inactive) |
| O=C(CN1c2ccccc2Sc2ccccc21)N1CCNCC1 | HOP-62 | > 100 µM (inactive) |
| C=CCOC(=O)Cn1ccc(=O)[nH]c1=O | HOP-62 | > 100 µM (inactive) |
| N[C@@H]1CCN(c2c(F)cc3c(=O)c(C(=O)O)cn4c3c2Oc2cc3c(ccc5ccccc53)cc2-4)C1 | HOP-62 | 4.82 µM (inactive) |

====

System: OVCAR-8
PROTOCOL DETAILS: NCI tumour cell line growth inhibition, 48 h
The source made the active and inactive calls. Rule as the data show it: active = GI50 up to about 1.1 µM and inactive = higher.

| COMPOUND | GI50 |
| --- | --- |
| C[C@@H]1CC[C@H]2[C@H]1[C@H]1[C@@H](CC[C@]2(C)N=C=S)C1(C)C | 41.7 µM (inactive) |
| CN1Cc2c(ccc3c2OCO3)[C@@H]2[C@H](O)Cc3cc4c(cc3[C@@H]21)OCO4 | 3.62 µM (inactive) |
| C1CSCCSCSCCS1 | > 100 µM (inactive) |
| C=C(C(=O)OC)[C@H]1CC/C(C)=C/CC/C(C)=C/CC[C@@]2(C)O[C@@H]2C1 | 13.8 µM (inactive) |
| CC(=O)Oc1ccc(-c2cc3ccccc3oc2=O)cc1OC(C)=O | 24.1 µM (inactive) |
| COc1ccc2c(c1)OCCCN(C)OC2c1ccccc1 (centres undefined) | > 100 µM (inactive) |
| COc1ccc(C2C3=C(COC3=O)OC(C)(C)Oc3cc4c(cc32)OCO4)cc1 (centres undefined) | 55.8 µM (inactive) |
| CC(O)C(CO)NC(=O)C1CSSCC(NC(=O)C(N)Cc2ccccc2)C(=O)NC(Cc2ccccc2)C(=O)NC(Cc2c[nH]c3ccccc23)C(=O)NC(CCCCN)C(=O)NC(C(C)O)C(=O)N1 (centres undefined) | > 100 µM (inactive) |
| O=C(Cc1nccc2c1[nH]c1ccccc12)OC1C#CCSCC#C/C=C\1 (centres undefined) | > 100 µM (inactive) |
